Hello, the source for this data is PubChem BioAssay (Tox21), in case you need it.

assay: Nuclear factor erythroid 2-related factor 2/antioxidant responsive element (Nrf2/ARE) small molecule agonists: luciferase reporter gene qHTS assay in human keratinocytes (AID 1919969); details: KeratinoSens HaCaT ARE-luciferase, luminescence, 24 h; series mostly up to 92.4 µM; note: nearly all actives have a fitted effect of over 35% in size
Inconclusive results are not listed. Activity calls are given as the source filed them. Calls come from the whole dose curve.
Pick one and only one: yes (1) (active), no (0) (inactive)

Example entries and their recorded answers appear below.
1) O=C(O)c1cc(=O)c2ccccc2o1 ... no (0)
2) OCCCCCCCl ... no (0)
3) Nc1ccncc1N ... no (0)
4) O=C(O)CCCCCC(=O)O ... no (0)
5) N#CCc1cccc(C(F)(F)F)c1 ... yes (1)

Ask | Per the records of this test, what outcome belongs to CC(C)S ?
Reply | no (0)

Ask | Fill in: this test's call for C[n+]1ccn(CCO)c1 is ___
Reply | no (0)

Ask | Status in this test for COc1ccc(NC(C)=O)cc1 ?
Reply | no (0)

Ask | Please state the recorded outcome for this compound: NC(=O)c1ccccc1N
Reply | no (0)

Ask | Status in this test for C=CCS(=O)(=O)O ?
Reply | no (0)
